experiment: Liver microsomal stability assay, rat; format: in vitro ADME; details: rat, liver microsomes; read-out: Metabolic stability in liver microsomes CLint

compound	microsomal CLint at 1 μM
Cc1c(C(=O)NC(CCC2CC2)C(=O)Nc2ccc(C#N)cc2)[nH]c2c1C(=O)CC(C)(C)C2 (stereo not shown) [RK-701]	33 µL/min/mg

====

biological target: SMYD1 (Homo sapiens, UniProt Q8NB12); construct: purchased Reaction Biology; assay: Radioisotope-based methyltransferase assay (selectivity); format: biochemical; conditions: SMYD1, 1 μM SAM
Sequence (Q8NB12 whole entry): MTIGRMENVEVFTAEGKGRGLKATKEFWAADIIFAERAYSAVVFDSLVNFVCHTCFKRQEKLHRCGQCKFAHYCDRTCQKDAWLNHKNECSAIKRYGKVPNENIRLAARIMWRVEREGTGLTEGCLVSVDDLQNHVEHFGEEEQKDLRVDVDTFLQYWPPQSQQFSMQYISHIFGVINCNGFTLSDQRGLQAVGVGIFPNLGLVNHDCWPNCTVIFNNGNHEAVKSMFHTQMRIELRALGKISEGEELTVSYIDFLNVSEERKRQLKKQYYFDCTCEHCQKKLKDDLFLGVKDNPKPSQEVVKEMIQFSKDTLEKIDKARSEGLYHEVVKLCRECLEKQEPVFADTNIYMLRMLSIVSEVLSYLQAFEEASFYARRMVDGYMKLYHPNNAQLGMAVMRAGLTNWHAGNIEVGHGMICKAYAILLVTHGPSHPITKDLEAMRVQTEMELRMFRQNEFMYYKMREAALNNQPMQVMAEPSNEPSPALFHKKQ
pIC50: −log10 of the molar value.
experimental endpoint: pIC50

compound	numeric value
Cc1c(C(=O)NC(CCC2CC2)C(=O)Nc2ccc(C#N)cc2)[nH]c2c1C(=O)CC(C)(C)C2 (centres unmarked)	4.28
Nc1ncnc2c1ncn2[C@@H]1O[C@H](CSCC[C@H](N)C(=O)O)[C@@H](O)[C@H]1O [SAH, S-(5'-Adenosyl)-L-homocysteine, reference compound]	4.32

====

biological target: SUV39H1 (Homo sapiens, UniProt O43463); construct: purchased Reaction Biology; assay: Radioisotope-based methyltransferase assay (selectivity); assay type: biochemical; settings: SUV39H1; RK-701 in duplicate
Sequence (O43463 whole entry): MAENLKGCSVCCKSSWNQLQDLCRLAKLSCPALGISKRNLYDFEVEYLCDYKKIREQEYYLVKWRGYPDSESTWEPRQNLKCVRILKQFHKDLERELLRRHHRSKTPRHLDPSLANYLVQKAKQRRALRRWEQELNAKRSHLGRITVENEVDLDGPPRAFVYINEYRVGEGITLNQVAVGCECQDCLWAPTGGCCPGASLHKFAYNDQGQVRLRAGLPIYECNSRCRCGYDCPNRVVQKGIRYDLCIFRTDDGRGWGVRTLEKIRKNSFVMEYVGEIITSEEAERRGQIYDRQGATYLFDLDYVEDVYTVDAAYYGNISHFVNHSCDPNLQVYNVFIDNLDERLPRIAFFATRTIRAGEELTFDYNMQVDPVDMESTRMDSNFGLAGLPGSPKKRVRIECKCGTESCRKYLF
pIC50: −log10 of the molar value.
experimental endpoint: pIC50

molecule	result
Cc1c(C(=O)NC(CCC2CC2)C(=O)Nc2ccc(C#N)cc2)[nH]c2c1C(=O)CC(C)(C)C2 (stereo not shown)	< 4.00

====

biological target: SET1b (Homo sapiens, UniProt Q9UPS6); construct: purchased Reaction Biology; assay: Radioisotope-based methyltransferase assay (selectivity); type: biochemical; settings: 1 μM SAM
pIC50: −log10 of the molar value.

compound	pIC50
Cc1c(C(=O)NC(CCC2CC2)C(=O)Nc2ccc(C#N)cc2)[nH]c2c1C(=O)CC(C)(C)C2 (centres unmarked) [RK-701]	4.31
Nc1ncnc2c1ncn2[C@@H]1O[C@H](CSCC[C@H](N)C(=O)O)[C@@H](O)[C@H]1O [SAH, S-(5'-Adenosyl)-L-homocysteine, reference compound]	5.28

====

target: SUV39H2 (Homo sapiens, UniProt Q9H5I1); construct: purchased Reaction Biology; assay: Radioisotope-based methyltransferase assay (selectivity); type: biochemical; settings: SUV39H2; RK-701 in duplicate
Sequence (Q9H5I1 whole entry): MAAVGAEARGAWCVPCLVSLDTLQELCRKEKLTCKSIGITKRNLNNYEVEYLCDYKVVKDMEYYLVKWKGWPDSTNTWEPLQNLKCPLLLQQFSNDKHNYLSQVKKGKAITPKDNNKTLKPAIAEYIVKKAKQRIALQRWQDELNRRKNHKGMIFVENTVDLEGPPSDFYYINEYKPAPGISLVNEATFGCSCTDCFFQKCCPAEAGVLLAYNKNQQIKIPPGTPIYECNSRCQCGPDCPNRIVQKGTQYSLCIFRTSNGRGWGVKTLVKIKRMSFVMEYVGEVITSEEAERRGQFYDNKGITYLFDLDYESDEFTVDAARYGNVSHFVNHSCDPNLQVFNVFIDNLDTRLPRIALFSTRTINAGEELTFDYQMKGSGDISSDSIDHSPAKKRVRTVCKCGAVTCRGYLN
experimental endpoint: IC50 (µM)

compound	experimental endpoint	measure unit	op	numeric value
Nc1ncnc2c1ncn2[C@@H]1O[C@H](CSCC[C@H](N)C(=O)O)[C@@H](O)[C@H]1O [SAH, S-(5'-Adenosyl)-L-homocysteine, reference compound]	IC50	µM	=	20.2
Cc1c(C(=O)NC(CCC2CC2)C(=O)Nc2ccc(C#N)cc2)[nH]c2c1C(=O)CC(C)(C)C2 (centres unmarked) [RK-701]	IC50	µM	>	100

====

target: MLL4 (Homo sapiens); test: Radioisotope-based methyltransferase assay (selectivity); details: MLL4, 1 μM SAM
Sequence (Q9UMN6 2490-2715): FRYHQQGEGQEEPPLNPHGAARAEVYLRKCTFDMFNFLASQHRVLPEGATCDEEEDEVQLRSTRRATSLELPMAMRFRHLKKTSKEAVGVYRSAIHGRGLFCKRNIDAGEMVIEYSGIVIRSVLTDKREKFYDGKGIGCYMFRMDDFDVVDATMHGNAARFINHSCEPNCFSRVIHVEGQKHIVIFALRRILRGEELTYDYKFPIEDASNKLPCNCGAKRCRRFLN
Sequence (Q9UBL3 whole entry, further chain): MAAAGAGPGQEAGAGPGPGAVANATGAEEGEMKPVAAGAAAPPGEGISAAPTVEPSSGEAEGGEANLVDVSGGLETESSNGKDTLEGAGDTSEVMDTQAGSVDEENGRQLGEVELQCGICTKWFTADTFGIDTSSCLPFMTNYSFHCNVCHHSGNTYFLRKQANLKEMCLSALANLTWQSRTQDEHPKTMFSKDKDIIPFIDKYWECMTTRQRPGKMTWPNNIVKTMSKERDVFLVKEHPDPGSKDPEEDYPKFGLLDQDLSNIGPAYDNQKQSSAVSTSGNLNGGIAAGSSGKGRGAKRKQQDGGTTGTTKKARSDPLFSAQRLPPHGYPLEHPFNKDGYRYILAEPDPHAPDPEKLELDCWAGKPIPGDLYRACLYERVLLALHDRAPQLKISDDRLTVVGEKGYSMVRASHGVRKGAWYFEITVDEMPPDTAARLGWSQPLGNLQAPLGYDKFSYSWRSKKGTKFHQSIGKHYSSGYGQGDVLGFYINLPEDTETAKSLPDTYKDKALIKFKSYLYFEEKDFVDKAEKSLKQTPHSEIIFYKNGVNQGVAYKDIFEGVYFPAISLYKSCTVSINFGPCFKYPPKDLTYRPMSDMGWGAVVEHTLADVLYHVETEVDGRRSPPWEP
Sequence (Q9C005 whole entry, further chain): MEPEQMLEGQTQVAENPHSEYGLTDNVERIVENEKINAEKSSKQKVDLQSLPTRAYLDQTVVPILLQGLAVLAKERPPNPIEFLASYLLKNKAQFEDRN
Sequence (Q15291 whole entry, further chain): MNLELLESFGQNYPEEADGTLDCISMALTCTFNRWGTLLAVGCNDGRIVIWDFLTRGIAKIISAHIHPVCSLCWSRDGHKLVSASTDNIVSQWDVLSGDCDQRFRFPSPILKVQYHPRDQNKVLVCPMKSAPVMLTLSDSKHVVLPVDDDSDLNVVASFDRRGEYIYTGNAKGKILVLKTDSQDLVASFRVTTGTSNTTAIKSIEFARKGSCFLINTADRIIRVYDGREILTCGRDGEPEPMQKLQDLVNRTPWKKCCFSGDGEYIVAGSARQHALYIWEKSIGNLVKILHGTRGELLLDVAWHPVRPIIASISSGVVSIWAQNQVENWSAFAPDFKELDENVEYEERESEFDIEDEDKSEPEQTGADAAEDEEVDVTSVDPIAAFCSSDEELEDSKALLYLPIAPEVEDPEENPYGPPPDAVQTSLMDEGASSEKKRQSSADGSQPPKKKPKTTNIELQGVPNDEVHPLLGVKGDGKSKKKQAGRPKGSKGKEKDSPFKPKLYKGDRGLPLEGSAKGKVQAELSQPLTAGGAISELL
experimental endpoint: IC50 (nM)

compound	experimental endpoint	measure unit	numeric value
Nc1ncnc2c1ncn2[C@@H]1O[C@H](CSCC[C@H](N)C(=O)O)[C@@H](O)[C@H]1O [SAH, S-(5'-Adenosyl)-L-homocysteine, reference compound]	IC50	nM	1100

====

biological target: PRDM9 (Homo sapiens, UniProt Q9NQV7); construct: purchased Reaction Biology; assay: Radioisotope-based methyltransferase assay (selectivity); assay type: biochemical; settings: PRDM9; RK-701 in duplicate; read-out: IC50
Sequence (Q9NQV7 whole entry): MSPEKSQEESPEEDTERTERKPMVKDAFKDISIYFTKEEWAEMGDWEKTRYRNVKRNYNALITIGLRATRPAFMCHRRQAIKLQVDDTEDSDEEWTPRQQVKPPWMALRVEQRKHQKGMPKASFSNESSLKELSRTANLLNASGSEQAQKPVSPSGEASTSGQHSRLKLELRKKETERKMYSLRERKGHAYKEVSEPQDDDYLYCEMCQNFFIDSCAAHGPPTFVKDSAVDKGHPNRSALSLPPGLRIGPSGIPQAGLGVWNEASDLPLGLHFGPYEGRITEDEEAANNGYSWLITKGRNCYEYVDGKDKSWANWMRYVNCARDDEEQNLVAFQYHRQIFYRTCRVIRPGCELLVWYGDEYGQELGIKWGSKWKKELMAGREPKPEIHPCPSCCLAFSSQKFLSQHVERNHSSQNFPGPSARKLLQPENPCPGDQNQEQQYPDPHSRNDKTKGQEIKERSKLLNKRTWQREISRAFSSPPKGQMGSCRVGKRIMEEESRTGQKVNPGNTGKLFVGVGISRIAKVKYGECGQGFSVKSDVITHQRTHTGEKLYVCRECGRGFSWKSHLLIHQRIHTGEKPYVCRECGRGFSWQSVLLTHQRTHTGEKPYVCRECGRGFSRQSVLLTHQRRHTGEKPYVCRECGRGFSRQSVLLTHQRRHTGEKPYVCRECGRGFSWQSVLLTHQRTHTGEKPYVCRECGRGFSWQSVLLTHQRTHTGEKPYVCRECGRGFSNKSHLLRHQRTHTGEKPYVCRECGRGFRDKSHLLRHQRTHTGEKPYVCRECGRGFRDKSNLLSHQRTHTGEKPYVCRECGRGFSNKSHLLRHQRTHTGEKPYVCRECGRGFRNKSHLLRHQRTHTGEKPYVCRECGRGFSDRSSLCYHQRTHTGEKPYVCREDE

compound	study target	IC50
Cc1c(C(=O)NC(CCC2CC2)C(=O)Nc2ccc(C#N)cc2)[nH]c2c1C(=O)CC(C)(C)C2 (stereo not shown) [RK-701]	PRDM9 (Homo sapiens, UniProt Q9NQV7)	> 100 µM

// provenance: paper PMC9837035
